The measurements presented in this section are drawn from patent US20240366770A1.

Form field: log10(DC50) (one value per entry).
System Under Test: BTK (Homo sapiens)
Construct: High control=Cell group with added DMSO and without compound, indicating microplate readings without BTK degradation; endogenous in cells; host or cells: TMD-8
Procedure Details: BTK degradation in TMD-8 cells (HTRF assay)
Format: cell-based
Reported Conditions: 6 h treatment, IC50 (DC50) of BTK degradation
log10 DC50, nM

Record excerpt, results attached:
compound="Cc1cc(-c2ncnc3[nH]c4cc(N5CCC6(CC5)CCN(C5CC(c7ccc([C@H]8CCC(=O)NC8=O)cc7)C5)C6)ccc4c23)ccc1[C@@H](C)NC(=O)c1nc(C(C)(C)C)no1 (some centres unmarked)" value_measured=0.69
compound="COc1cc2c(cc1N1CCN(C3CC(c4ccc([C@@H]5CCC(=O)NC5=O)cc4)C3)CC1)[nH]c1ncnc(-c3ccc([C@@H](C)NC(=O)c4nc(C(C)(C)C)no4)c(C)c3F)c12 (some centres unmarked)" value_measured=0.84
compound="Cc1cc(-c2ncnc3[nH]c4cc(N5CCN([C@H]6C[C@@H](c7ccc(NC8CCC(=O)NC8=O)cc7)C6)CC5)ccc4c23)ccc1[C@@H](C)NC(=O)c1nc(C2(C)CC2)no1 (some centres unmarked)" value_measured=-0.12
compound="COc1cc2c(cc1N1CCN(C3CCN(c4cccc(C5CCC(=O)NC5=O)c4)C3)CC1)[nH]c1ncnc(-c3ccc([C@@H](C)NC(=O)c4nc(C(C)(C)C)no4)c(C)c3)c12 (some centres unmarked)" value_measured=-0.01

What value of log10(DC50) on BTK (Homo sapiens) does `C[C@@H](NC(=O)c1nc(C(C)(C)C)no1)C1CCN(c2ncnc3[nH]c4cc(N5CCN(CC6CCN(c7ccc(N8CCC(=O)NC8=O)cc7)CC6)CC5)ccc4c23)CC1` have? 1.80

###

System Under Test: BTK (Homo sapiens, UniProt Q06187)
Construct: High control=Cell group with added DMSO and without compound, indicating microplate readings without BTK degradation; endogenous in cells; host or cells: TMD-8
Sequence (Q06187 whole entry): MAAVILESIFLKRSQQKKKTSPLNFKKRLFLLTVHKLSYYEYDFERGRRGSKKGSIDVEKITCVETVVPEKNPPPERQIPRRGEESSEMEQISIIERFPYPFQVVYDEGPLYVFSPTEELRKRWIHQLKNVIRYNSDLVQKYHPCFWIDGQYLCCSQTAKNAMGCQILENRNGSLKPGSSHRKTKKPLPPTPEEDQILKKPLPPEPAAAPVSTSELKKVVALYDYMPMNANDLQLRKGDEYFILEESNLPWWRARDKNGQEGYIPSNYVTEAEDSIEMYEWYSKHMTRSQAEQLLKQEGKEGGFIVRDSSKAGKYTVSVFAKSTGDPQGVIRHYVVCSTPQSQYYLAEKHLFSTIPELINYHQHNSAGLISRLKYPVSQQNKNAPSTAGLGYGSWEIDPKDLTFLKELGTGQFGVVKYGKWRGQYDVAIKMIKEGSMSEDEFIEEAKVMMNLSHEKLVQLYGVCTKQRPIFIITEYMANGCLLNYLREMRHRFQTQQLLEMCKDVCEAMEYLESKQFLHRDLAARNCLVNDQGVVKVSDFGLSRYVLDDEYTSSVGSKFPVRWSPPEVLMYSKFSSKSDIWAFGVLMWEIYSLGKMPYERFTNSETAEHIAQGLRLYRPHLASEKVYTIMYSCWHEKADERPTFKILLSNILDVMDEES
Procedure Details: BTK degradation in TMD-8 cells (HTRF assay)
Assay type: cell-based
Reported Conditions: 6 h treatment, IC50 (DC50) of BTK degradation
Reported Property: DC50 (nM)
Numbers only; they are read as nM.

These solved cases illustrate the format of a correct answer.
compound=Cc1cc(-c2ncnc3[nH]c4cc([C@@H]5CCN(CC6CCN(c7ccc(N8CCC(=O)NC8=O)cc7)CC6)C5)ccc4c23)ccc1[C@@H](C)NC(=O)c1nc(C(C)(C)C)no1 reported_property=DC50 value_measured=1.05
compound=Cc1cc2c(cc1N1CCN(CC3CCN(c4ccc(N5CCC(=O)NC5=O)cc4)CC3)CC1)[nH]c1ncnc(-c3ccc([C@@H](C)NC(=O)c4noc(C(C)(C)C)n4)c(C)c3F)c12 reported_property=DC50 value_measured=1.05

Please look at the following compound next.
Fill in the recorded DC50 for this compound, with BTK (Homo sapiens, UniProt Q06187) as test system: COc1cc2c(cc1N1CCN(Cc3ccc4c(c3)C(C)(C)C(=O)N4C3CCC(=O)NC3=O)CC1)[nH]c1ncnc(-c3ccc([C@@H](C)NC(=O)c4nc(C(C)(C)C)no4)c(C)c3)c12 (stereo partly drawn) 1.27

###

# DC50 values compiled below
System Under Test: BTK (Homo sapiens, UniProt Q06187)
Construct: High control=Cell group with added DMSO and without compound, indicating microplate readings without BTK degradation; endogenous in cells; host or cells: TMD-8
Procedure Details: BTK degradation in TMD-8 cells (HTRF assay)
Format: cell-based
Reported Conditions: 6 h treatment, IC50 (DC50) of BTK degradation

Solved entries (count: 3):
compound="Cc1c([C@@H](C)NC(=O)c2noc(C(C)(C)C)n2)ccc(-c2ncnc3[nH]c4cc(N5CCN(Cc6ccc7c(c6)C(C)(C)C(=O)N7C6CCC(=O)NC6=O)CC5)ccc4c23)c1F (stereo partly shown)" reported_property=DC50 value_measured="> 2 µM"
compound=Cc1cc(-c2ncnc3[nH]c4cc(N5CCN(CC6CCN(c7ccc(N8CCC(=O)NC8=O)cc7)CC6)CC5)c(C)cc4c23)c(F)cc1[C@@H](C)NC(=O)c1noc(C(C)(C)C)n1 reported_property=DC50 value_measured="0.00138 µM"
compound=C[C@H]1CC[C@@H](NC(=O)c2nc(C(C)(C)C)no2)CN1c1ncnc2[nH]c3cc(N4CCN(CC5CCN(c6ccc(N7CCC(=O)NC7=O)cc6)CC5)CC4)ccc3c12 reported_property=DC50 value_measured="> 2 µM"

Moving on to another compound below.
Give the measured DC50 of Cc1c([C@@H](C)NC(=O)c2noc(C(C)(C)C)n2)ccc(-c2ncnc3[nH]c4cc(N5CCN(Cc6ccc7c(c6)N(C6CCC(=O)NC6=O)C(=O)C7(C)C)CC5)ccc4c23)c1F (stereo partly shown) . > 2 µM
